Entry source: ChEMBL document CHEMBL4043131

# key: entry, value: EC50
Test system: Human alphaherpesvirus 2
PROTOCOL DESCRIPTION: Antiviral activity against Herpes simplex virus 2 G infected in HEL cells assessed as inhibition of virus-induced cytopathic effect
Format: functional, cell-based
ASSAY CONTEXT: Human alphaherpesvirus 2, strain G
Please state the figure in µM; there is no need to write the unit.

INSERT INTO measurements (structure_smiles_string, system, quantitative_readout) VALUES
  ('CC(C)OC(=O)OCOP(=O)(COCCn1cnc(N)nc1=O)OCOC(=O)OC(C)C', 'Human alphaherpesvirus 2', 22),
  ('CCOC(=O)[C@H](Cc1ccccc1)NP(=O)(COCCn1cnc(N)nc1=O)N[C@@H](Cc1ccccc1)C(=O)OCC', 'Human alphaherpesvirus 2', 39.5),
  ('CCOC(=O)[C@H](C)NP(=O)(COCCOc1cc(N)nc(N)n1)N[C@@H](C)C(=O)OCC', 'Human alphaherpesvirus 2', 3.46),
  ('CCCCCCCCCCCCCCCCCCOCCOP(=O)(O)COCCn1cnc(N)nc1=O', 'Human alphaherpesvirus 2', 0.15),
  ('CC(C)OC(=O)OCOP(=O)(COCCOc1cc(N)nc(N)n1)OCOC(=O)OC(C)C', 'Human alphaherpesvirus 2', 1.01);

Prompt: Request body: readout EC50, system Human alphaherpesvirus 2, query CC(C)(C)C(=O)OCOP(=O)(COCCn1cnc(N)nc1=O)OCOC(=O)C(C)(C)C . Return the value.
Completion: 1.26

Prompt: Request body: readout EC50, system Human alphaherpesvirus 2, query CC(C)(C)C(=O)OCOP(=O)(COCCOc1cc(N)nc(N)n1)OCOC(=O)C(C)(C)C . Return the value.
Completion: 9.5

Prompt: Request body: readout EC50, system Human alphaherpesvirus 2, query Nc1cc(OCCOCP(=O)(O)O)nc(N)n1 . Return the value.
Completion: 20
